# Measured Target: NLRP3 inflammasome (Homo sapiens, UniProt Q96P20)
# Sequence (Q96P20 whole entry): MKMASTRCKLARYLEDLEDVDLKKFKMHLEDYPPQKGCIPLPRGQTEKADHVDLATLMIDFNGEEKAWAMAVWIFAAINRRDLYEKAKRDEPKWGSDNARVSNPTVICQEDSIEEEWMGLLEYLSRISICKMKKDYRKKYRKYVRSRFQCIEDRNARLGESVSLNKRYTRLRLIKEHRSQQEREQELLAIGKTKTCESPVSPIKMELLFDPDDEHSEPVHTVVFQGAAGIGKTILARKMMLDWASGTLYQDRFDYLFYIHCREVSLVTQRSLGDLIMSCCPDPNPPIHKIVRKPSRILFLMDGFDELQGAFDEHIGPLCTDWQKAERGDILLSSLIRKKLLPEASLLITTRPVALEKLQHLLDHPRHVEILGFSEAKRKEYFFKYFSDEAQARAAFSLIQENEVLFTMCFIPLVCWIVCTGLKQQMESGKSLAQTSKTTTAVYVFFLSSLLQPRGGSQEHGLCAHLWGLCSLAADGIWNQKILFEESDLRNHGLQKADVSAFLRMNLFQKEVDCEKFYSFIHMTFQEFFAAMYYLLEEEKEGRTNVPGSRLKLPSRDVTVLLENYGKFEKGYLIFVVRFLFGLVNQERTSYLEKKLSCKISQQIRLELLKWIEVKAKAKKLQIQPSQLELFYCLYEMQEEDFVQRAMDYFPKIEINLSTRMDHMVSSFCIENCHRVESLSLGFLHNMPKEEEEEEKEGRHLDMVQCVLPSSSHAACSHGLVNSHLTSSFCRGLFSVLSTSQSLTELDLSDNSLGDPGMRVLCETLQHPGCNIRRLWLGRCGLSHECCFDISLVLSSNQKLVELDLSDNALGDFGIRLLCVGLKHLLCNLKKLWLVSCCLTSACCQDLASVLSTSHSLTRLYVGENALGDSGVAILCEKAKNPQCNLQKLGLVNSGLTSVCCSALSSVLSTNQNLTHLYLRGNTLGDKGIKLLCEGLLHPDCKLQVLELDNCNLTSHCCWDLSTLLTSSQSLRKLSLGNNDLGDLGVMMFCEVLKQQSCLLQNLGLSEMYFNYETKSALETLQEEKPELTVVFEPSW
# Protocol Summary: NLRP3 inflammasome activation in LPS-primed, nigericin-activated THP1 macrophages, IL-1β AlphaLISA
# Reported Conditions: PMA-differentiated, 1 hr compound, Nigericin 6.7 uM 3 hrs, IL-1β in supernatant
pIC50: −log10 of the molar value.
# maps each entry to its pIC50
Reported Property: pIC50

Smiles Data	Measured Target	Measured
CN1CCC[C@@H](N(C)c2nnc(-c3ccc(C(F)(F)F)cc3)c3cc[nH]c23)C1	NLRP3 inflammasome (Homo sapiens, UniProt Q96P20)	6.30 to 7.00
CN1CCC[C@@H](Nc2nnc(-c3ccc(C#N)cc3C(F)F)c3cnn(C)c23)C1	NLRP3 inflammasome (Homo sapiens, UniProt Q96P20)	6.30 to 7.00
Cc1cc(C(F)(F)F)cc(O)c1-c1nnc(N[C@@H]2CCCN(C)C2)c2c1ccn2C	NLRP3 inflammasome (Homo sapiens, UniProt Q96P20)	> 8.00
CN1CCC[C@@H](Oc2nnc(-c3ccc(F)cc3O)c3cc[nH]c23)C1	NLRP3 inflammasome (Homo sapiens, UniProt Q96P20)	6.30 to 7.00
CN1CCC[C@@H](Nc2nnc(-c3ccc(C(F)(F)F)cc3)c3ccsc23)C1	NLRP3 inflammasome (Homo sapiens, UniProt Q96P20)	7.00 to 8.00
CN1CCC[C@@H](Nc2nnc(-c3ncc(C(F)(F)F)cc3Cl)c3ccn(C)c23)C1	NLRP3 inflammasome (Homo sapiens, UniProt Q96P20)	7.00 to 8.00
Cc1cc(C#N)cc(O)c1-c1nnc(N[C@@H]2CCCN(C)C2)c2c1ccn2C	NLRP3 inflammasome (Homo sapiens, UniProt Q96P20)	> 8.00
CN1CCC[C@@H](Nc2nnc(-c3ccccc3C(F)F)c3[nH]ccc23)C1	NLRP3 inflammasome (Homo sapiens, UniProt Q96P20)	≤ 5.00
CN1CCC[C@@H](Nc2nnc(-c3ccc(C#N)cc3)c3ccn(C)c23)C1	NLRP3 inflammasome (Homo sapiens, UniProt Q96P20)	6.30 to 7.00
Cc1cc2c(-c3ccc(C(F)(F)F)cc3)nnc(N[C@@H]3CCCN(C)C3)c2n1C	NLRP3 inflammasome (Homo sapiens, UniProt Q96P20)	7.00 to 8.00
CN1CCC[C@@H](Oc2nnc(-c3ccc(F)cc3O)c3ccoc23)C1	NLRP3 inflammasome (Homo sapiens, UniProt Q96P20)	6.30 to 7.00
CN1CCC[C@@H](Nc2nnc(-c3ccc(C#N)cc3C(F)F)c3ccn(C)c23)C1	NLRP3 inflammasome (Homo sapiens, UniProt Q96P20)	6.30 to 7.00
CN1CCC[C@@H](Nc2nnc(-c3ncc(C#N)cc3O)c3cc(Cl)n(C)c23)C1	NLRP3 inflammasome (Homo sapiens, UniProt Q96P20)	> 8.00
CN1CCC[C@@H](N(C)c2nnc(-c3ccc(C(F)(F)F)cc3)c3c2ccn3C)C1	NLRP3 inflammasome (Homo sapiens, UniProt Q96P20)	5.00 to 6.00
CN1CCC[C@@H](Nc2nnc(-c3ccc(F)cc3)c3cc[nH]c23)C1	NLRP3 inflammasome (Homo sapiens, UniProt Q96P20)	7.00 to 8.00
CN1CCC[C@@H](Nc2nnc(-c3ccc(C(F)(F)F)cc3)c3ccn(C)c23)C1	NLRP3 inflammasome (Homo sapiens, UniProt Q96P20)	7.00 to 8.00
CN1CCC[C@@H](Nc2nnc(-c3ccccc3O)c3cc[nH]c23)C1	NLRP3 inflammasome (Homo sapiens, UniProt Q96P20)	> 8.00

###

# Tested on: IL-6
# Protocol Summary: IL-6 in supernatants of LPS-primed, nigericin-treated THP1 macrophages, Hu IL-6 AlphaLISA
# Format: cell-based
# Reported Conditions: Homo sapiens, THP-1, PMA-differentiated, 1 hr compound, Nigericin 6.7 uM 3 hrs, IL-6 in supernatant
# maps each entry to its IC50
Reported Property: IC50

Compound	Measured
CN1CCC[C@@H](Nc2nnc(-c3ccc(Cl)cc3C(F)F)c3ccn(C)c23)C1	≥ 10 µM
CN1CCC[C@@H](Nc2nnc(-c3ccc(C(F)(F)F)cc3)c3c2CCO3)C1	≥ 10 µM
CN1CCC[C@@H](Nc2nnc(-c3ncc(C(F)(F)F)cc3Cl)c3ccn(C)c23)C1	≥ 10 µM
CN1CCC[C@@H](N(C)c2nnc(-c3ccccc3O)c3cc[nH]c23)C1 (single isomer, unassigned)	5 to 10 µM

###

# System: IL-6
# Protocol Summary: IL-6 in supernatants of LPS-primed, nigericin-treated THP1 macrophages, Hu IL-6 AlphaLISA
# Type: cell-based
# Reported Conditions: Homo sapiens, THP-1, PMA-differentiated, 1 hr compound, Nigericin 6.7 uM 3 hrs, IL-6 in supernatant

Smiles Data	Measured Target	IC50
CN1C[C@H](Nc2nnc(-c3ccc(C(F)(F)F)cc3)c3cc[nH]c23)CC(F)(F)C1	IL-6	5 to 10 µM
CN1CCC[C@@H](Nc2nnc(-c3ccc(C(F)(F)F)cc3)c3ncn(C)c23)C1	IL-6	≥ 10 µM
CN1CCC[C@@H](N(C)c2nnc(-c3ccccc3O)c3ccn(C)c23)C1	IL-6	1 to 5 µM
CN1CCC[C@@H](N(C)c2nnc(-c3ccc(Cl)cc3)c3ccn(C)c23)C1	IL-6	1 to 5 µM

###

# Tested on: IL-6
# Protocol Summary: IL-6 in supernatants of LPS-primed, nigericin-treated THP1 macrophages, Hu IL-6 AlphaLISA
# Type: cell-based
# Reported Conditions: Homo sapiens, THP-1, PMA-differentiated, 1 hr compound, Nigericin 6.7 uM 3 hrs, IL-6 in supernatant
pIC50: −log10 of the molar value.
# maps each entry to its pIC50
Reported Property: pIC50

Smiles Data	Measured
CN1CCC[C@@H](Nc2nnc(-c3ccc(C(F)(F)F)cc3)c3cnn(C)c23)C1	≤ 5.00
Cc1cc(C#N)cc(C)c1-c1nnc(N[C@@H]2CCCN(C)C2)c2c1ccn2C	≤ 5.00
Cn1ccc2c(-c3ccc(C#N)cc3O)nnc(N[C@@H]3CCCN(C4COC4)C3)c21	≤ 5.00
CN1CCC[C@@H](N(C)c2nnc(-c3ccc(F)cc3O)c3ccn(C)c23)C1	5.30 to 6.00
Cc1cc2c(-c3ccc(C(F)(F)F)cc3)nnc(N[C@@H]3CCCN(C)C3)c2n1C	5.00 to 5.30
Cn1ccc2c(-c3ccc(C#N)cc3O)nnc(N[C@@H]3CCCN(CCN)C3)c21	≤ 5.00
CN1CCC[C@@H](Nc2nnc(-c3ccc(C#N)cc3O)c3c(Cl)cn(C)c23)C1	≤ 5.00
CN1CCC[C@@H](N(C)c2nnc(-c3ccc(F)cc3O)c3ccoc23)C1	≤ 5.00

###

# Measured Target: UniProt Q96P20
# Protocol Summary: NLRP3 inflammasome activation in LPS-primed, nigericin-activated THP1 macrophages, IL-1β AlphaLISA
# Reported Conditions: PMA-differentiated, 1 hr compound, Nigericin 6.7 uM 3 hrs, IL-1β in supernatant
pIC50: −log10 of the molar value.

Compound	pIC50
CN1CCC[C@@H](Nc2nnc(-c3ccc(F)cc3O)c3[nH]ccc23)C1 [Compound 7]	6.30 to 7.00
CN1CCC[C@@H](Nc2nnc(-c3ccc(F)cc3O)c3cc[nH]c23)C1 [Compound 4]	> 8.00
CN1CCC[C@@H](Nc2nnc(-c3ccccc3O)c3c2ccn3C)C1 (single isomer, unassigned) [Compound 67]	7.00 to 8.00
CN1CCC[C@@H](Nc2nnc(-c3ccc(C(F)(F)F)cc3)c3c2OCC3)C1 [Compound 58]	6.30 to 7.00
CCN1CCC[C@@H](Nc2nnc(-c3ccc(C(F)(F)F)cc3)c3ccn(C)c23)C1 [Compound 76]	> 8.00
CN1CCC[C@@H](Nc2nnc(-c3ccc(Cl)cc3)c3[nH]ccc23)C1 [Compound 11]	5.00 to 6.00
CN1CCC[C@@H](Nc2nnc(-c3ccccc3O)c3[nH]ccc23)C1 [Compound 8]	6.30 to 7.00
CN1C[C@H](Nc2nnc(-c3ccc(C#N)cc3O)c3ccn(C)c23)CC(F)(F)C1 [Compound 145]	≤ 5.00

###

# Measured Target: NLRP3 inflammasome (Homo sapiens, UniProt Q96P20)
# Protocol Summary: NLRP3 inflammasome activation in LPS-primed, nigericin-activated THP1 macrophages, IL-1β AlphaLISA
# Reported Conditions: PMA-differentiated, 1 hr compound, Nigericin 6.7 uM 3 hrs, IL-1β in supernatant
# Method: NLRP3 Inflammasome Activation and Cell Viability Assessment in THP1 Macrophages […] Thereafter, 30 ul samples of cells' supernatants were collected for cytokine analysis which was conducted on Hu IL-1β AlphaLISA (Perkin Elmer, cat #AL220C) and Hu IL-6 AlphaLISA (Perkin Elmer, cat #AL220C). The cells' viability was assessed by performing CellTiter-Glo Luminescent Assay (Promega, cat #G7572) according to the manufacturer's protocol.
# maps each entry to its IC50

Molecule	IC50
Cc1c[nH]c2c(N[C@@H]3CCCN(C)C3)nnc(-c3ccc(F)cc3)c12 [Compound 73]	100 to 500 nM
CN1CCC[C@@H](Nc2nnc(-c3ccc(C(F)(F)F)cc3)c3occc23)C1 [Compound 54]	100 to 500 nM
CN1CCC[C@@H](Nc2nnc(-c3ccc(Cl)cc3)c3ccn(C)c23)C1 [Compound 80]	< 10 nM
CN1CCC[C@@H](Oc2nnc(-c3ccc(F)cc3O)c3ccsc23)C1 [Compound 86]	100 to 500 nM
CN1CCC[C@@H](Nc2nnc(-c3ccc(C(F)(F)F)cc3)c3c2cnn3C)C1 [Compound 32]	< 10 nM
CN1CCC[C@@H](Nc2nnc(-c3ncc(C#N)cc3O)c3ccn(C)c23)C1 [Compound 135]	≥ 10000 nM

Attribution: patent US20260015357A1
